# Tested on: Aβ40 in conditioned medium of cells stably expressing Amyloid Precursor Protein (APP)
# assay method text: In vitro BACE cell-based assay (HEK cell assay, Aβ40 sandwich ELISA)
# condition details: Homo sapiens, HEK293; average IC50; read-out: BACE1 cell assay IC50
Classify on IC50 using band 1 (below 5 nM), band 2 (5 nM to below 60 nM), band 3 (60 nM or more)

Some entries whose results are on file:
IN: For this compound, which bin applies? C[C@]1(c2cc(NC(=O)c3ccc(Cl)cn3)ccc2F)N=C(N)[C@@]2(CF)CC[C@@H]1S2(=O)=O
OUT: band 1

IN: Exercise: read the entry C[C@]1(c2cc(Nc3ncc(F)c4cc(OCC5CC5)cnc34)ccc2F)N=C(N)[C@@]2(C)CC[C@@H]1S2(=O)=O and state which class it falls under.
OUT: band 3

IN: Class label required: C[C@]12CC[C@H]([C@@](C)(c3cc(Nc4nccc5nc(OCC6CC6)cnc45)ccc3F)N=C1N)S2(=O)=O
OUT: band 3

IN: Please indicate the class for COc1cnc(C(=O)Nc2ccc(F)c([C@@]3(C)N=C(N)[C@]4(C)CC[C@H]3S4(=O)=O)c2)cn1 based on its IC50.
OUT: band 2

IN: Into which category would you place COc1cnc2c(Nc3ccc(F)c([C@@]4(C)N=C(N)[C@@]5(C)CC[C@@H]4S5(=O)=O)c3)nccc2n1 ?
OUT: band 2

Others:
IN: State the band of C[C@]1(c2cc(Nc3nccc4nc(C(F)(F)F)cnc34)ccc2F)N=C(N)[C@@]2(C)CC[C@@H]1S2(=O)=O
OUT: band 3

----------
# System: Aβ40 in conditioned medium of cells stably expressing Amyloid Precursor Protein (APP)
# assay method text: In vitro BACE cell-based assay (HEK cell assay, Aβ40 sandwich ELISA)
# condition details: Homo sapiens, HEK293; average IC50; read-out: BACE1 cell assay IC50
Below: a set of entries, each annotated with reported pIC50.
For clarity, pIC50 is expressed as the negative log10 of concentration in mol/L.

IN: Using the record for CC#CCOc1cnc(C(=O)Nc2ccc(F)c([C@@]3(C)N=C(N)[C@]4(CF)CC[C@H]3S4(=O)=O)c2)cn1 , report its pIC50.
OUT: 8.52

IN: Name the reported pIC50 value associated with the compound COc1cnc2c(Nc3ccc(F)c([C@@]4(C)N=C(N)[C@@]5(C)CC[C@@H]4S5(=O)=O)c3)ncc(F)c2c1
OUT: 7.92

IN: What value of pIC50 has been reported for the following compound? CC#CCOc1cnc2c(Nc3ccc(F)c([C@@]4(C)N=C(N)[C@@]5(C)CC[C@@H]4S5(=O)=O)c3)nccc2n1
OUT: 9.00

IN: Which pIC50 is listed for C#CCOc1cnc(C(=O)Nc2ccc(F)c([C@@]3(C)N=C(N)[C@@]4(CF)CC[C@@H]3S4(=O)=O)c2)c(Cl)c1 ?
OUT: 8.10

IN: If you can, please state the reported pIC50 value of C[C@]1(c2cc(NC(=O)c3ncc(Cl)cc3Cl)ccc2F)N=C(N)[C@@]2(CF)CC[C@@H]1S2(=O)=O .
OUT: 8.40

IN: What measured pIC50 goes with C[C@]1(c2cc(NC(=O)c3cnc(C(F)F)cn3)ccc2F)N=C(N)[C@@]2(CF)CC[C@@H]1S2(=O)=O ?
OUT: 8.15

IN: Returns the measured pIC50 for the input compound. Input: COc1cnc(C(=O)Nc2ccc(F)c([C@@]3(CF)N=C(N)[C@@]4(C)CC[C@@H]3S4(=O)=O)c2)cn1 (single isomer, unassigned)
OUT: 7.06

IN: Return reported pIC50; argument: COC[C@]12CC[C@H]([C@@](C)(c3cc(Nc4ncnc5cc(Cl)cnc45)ccc3F)N=C1N)S2(=O)=O
OUT: 6.49

IN: I would be grateful if you could share the reported pIC50 for COc1ccc(C(=O)Nc2ccc(F)c([C@@]3(C)N=C(N)[C@]4(C)CC[C@H]3S4(=O)=O)c2)c(F)c1 .
OUT: 6.99

IN: So what's the measured pIC50 for this one? CC#CCOc1cnc(C(=O)Nc2ccc(F)c([C@@]3(C)N=C(N)[C@@]4(CF)CC[C@@H]3S4(=O)=O)c2)cn1
OUT: 9.70

IN: I am curious: what pIC50 value has been reported for C#CC(C)(C)Oc1cnc(C(=O)Nc2ccc(F)c([C@@]3(C)N=C(N)[C@@]4(CF)CC[C@@H]3S4(=O)=O)c2)cn1 ?
OUT: 6.82

IN: For the compound shown here, CC#CCOc1cnc(C(=O)Nc2ccc(F)c([C@@]3(C)N=C(N)[C@@]4(C)CC[C@@H]3S4(=O)=O)c2)cn1 , give the reported pIC50.
OUT: 10.15

IN: Dear colleague, I am looking for the recorded pIC50 of the following compound: C[C@]1(c2cc(Nc3ncc(F)c4cc(O)cnc34)ccc2F)N=C(N)[C@@]2(C)CC[C@@H]1S2(=O)=O
OUT: 8.05

IN: What value of pIC50 has been reported for the following compound? CC#CCOc1ccc(C(=O)Nc2ccc(F)c([C@@]3(C)N=C(N)[C@@]4(C)CC[C@@H]3S4(=O)=O)c2)c(F)c1
OUT: 6.91

IN: Sample COc1cnc(C(=O)Nc2ccc(F)c([C@@]3(C)N=C(N)[C@@]4(C)CC[C@@H]3S4(=O)=O)c2)cn1 — what was its pIC50?
OUT: 8.70

----------
# experimental system: Cathepsin D (Cat D) (Homo sapiens)
# Construct: made in house; host or cells: CHO cells
# assay method text: In vitro enzymatic Cathepsin D (Cat D) FRET assay
# Assay type: biochemical
# condition details: average IC50; first procedure; read-out: CatD IC50
recorded endpoint: pIC50
Expect pIC50 as a plain number equal to -log10 of the molar concentration.

Some entries whose results are on file:
IN: Which measured pIC50 value corresponds to COc1cnc(C(=O)Nc2ccc(F)c([C@@]3(C)N=C(N)[C@@]4(CF)CC[C@@H]3S4(=O)=O)c2)c(C)c1 ?
OUT: 3.12

IN: For the compound Cc1cc(C(F)(F)F)cnc1C(=O)Nc1ccc(F)c([C@@]2(C)N=C(N)[C@]3(CF)CC[C@H]2S3(=O)=O)c1 , what pIC50 is on record?
OUT: 2.80

IN: pIC50 for C[C@]12CC[C@](C)([C@@](C)(c3cc(Nc4ncc(F)c5cc(Cl)cnc45)ccc3F)N=C1N)S2(=O)=O ?
OUT: 4.67

Let's switch to this compound now.
IN: I have this compound here, C[C@]1(c2cc(Nc3ncc(F)c4cc(O)cnc34)ccc2F)N=C(N)[C@@]2(C)CC[C@@H]1S2(=O)=O , and I need its recorded pIC50.
OUT: 3.72

----------
Known pIC50 of a selection of compounds
# experimental system: Cathepsin D (Cat D) (Homo sapiens, UniProt P07339)
# Construct: made in house; host or cells: CHO cells
# Sequence (P07339 65-412, species assumed): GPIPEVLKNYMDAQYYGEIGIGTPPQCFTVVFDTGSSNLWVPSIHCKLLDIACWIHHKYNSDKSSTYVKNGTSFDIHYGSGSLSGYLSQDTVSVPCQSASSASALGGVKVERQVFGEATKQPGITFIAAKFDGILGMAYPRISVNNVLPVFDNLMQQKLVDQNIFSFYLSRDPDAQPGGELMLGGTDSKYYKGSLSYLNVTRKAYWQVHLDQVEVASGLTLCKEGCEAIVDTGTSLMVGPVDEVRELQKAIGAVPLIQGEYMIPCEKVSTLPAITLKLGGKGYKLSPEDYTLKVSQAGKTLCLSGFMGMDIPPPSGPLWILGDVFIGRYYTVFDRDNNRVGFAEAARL
# assay method text: In vitro enzymatic Cathepsin D (Cat D) FRET assay
# Assay type: biochemical
# condition details: average IC50; first procedure; read-out: CatD IC50
# Procedure: In Vitro Enzymatic Cathepsin D (Cat D) FRET (Fluorescence Resonance Energy Transfer) Assay Recombinant Cat D was expressed in CHO cells. The assay buffer for CathepsinD is 0.05 M citrate pH 3.5, 10% DMSO final, 5 mM CHAPS. […] The FRET assay is terminated with by addition of Tris buffer, which raises the pH to neutrality, and the fluorescence is determined. […] Proteolytic cleavage of the FRET substrate releases quenching of fluorescence (Cat D excitation 500 nm and emission 580 nm). […]
Answer as the number alone; pIC50 is minus log10 of concentration in mol/L.

IN: May I ask what pIC50 has been recorded for CC(C)COc1cnc2c(Nc3ccc(F)c([C@@]4(C)N=C(N)[C@@]5(C)CC[C@@H]4S5(=O)=O)c3)nccc2n1 ?
OUT: 3.82

Continuing:
IN: pIC50 lookup needed for COc1cnc2c(Nc3ccc(F)c([C@@]4(C)N=C(N)[C@@]5(CF)CC[C@@H]4S5(=O)=O)c3)ncc(F)c2c1 , thanks.
OUT: 3.50

IN: Entry COc1cnc2c(Nc3ccc(F)c([C@@]4(C)N=C(N)[C@@]5(CF)CC[C@@H]4S5(=O)=O)c3)nccc2n1 : reported pIC50 = ?
OUT: 3.06

IN: Fill blank: measured pIC50 of the compound COCCOc1cnc2c(Nc3ccc(F)c([C@@]4(C)N=C(N)[C@@]5(C)CC[C@@H]4S5(=O)=O)c3)nccc2n1 is ____.
OUT: 2.70

----------
# experimental system: BACE1 (Homo sapiens)
# Sequence (P56817 46-501, species assumed): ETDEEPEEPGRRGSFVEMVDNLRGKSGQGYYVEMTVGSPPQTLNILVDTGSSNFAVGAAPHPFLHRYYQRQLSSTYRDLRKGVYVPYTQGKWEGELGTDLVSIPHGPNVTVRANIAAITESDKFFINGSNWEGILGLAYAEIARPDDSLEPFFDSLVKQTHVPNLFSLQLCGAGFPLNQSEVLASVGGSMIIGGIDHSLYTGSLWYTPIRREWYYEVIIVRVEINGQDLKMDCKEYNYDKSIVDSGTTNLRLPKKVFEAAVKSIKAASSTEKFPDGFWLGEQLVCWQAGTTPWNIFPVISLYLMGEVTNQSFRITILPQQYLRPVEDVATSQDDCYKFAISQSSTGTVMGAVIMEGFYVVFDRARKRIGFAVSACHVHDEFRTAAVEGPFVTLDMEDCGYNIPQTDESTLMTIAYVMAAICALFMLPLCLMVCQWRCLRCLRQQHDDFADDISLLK
# assay method text: In vitro enzymatic BACE FRET assay
# Format: biochemical
# condition details: average IC50; read-out: BACE1 Enzyme assay IC50
recorded endpoint: pIC50
pIC50 field: float, defined as -log10 of concentration (mol/L).

Before answering, review these 2 worked examples.
IN: Quick one: pIC50 of C[C@]12CC[C@H]([C@@](C)(c3cc(NC(=O)c4ccc(C#N)cc4F)ccc3F)N=C1N)S2(=O)=O ?
OUT: 6.91

IN: Any idea what its pIC50 is? The compound is C[C@]12CC[C@](C)(C(N)=N[C@]1(C)c1cc(Nc3ncc(F)c4cc(Cl)cnc34)ccc1F)S2(=O)=O
OUT: 8.40

***
IN: Field request: pIC50 | item: Cc1cc(C(F)(F)F)cnc1C(=O)Nc1ccc(F)c([C@@]2(C)N=C(N)[C@@]3(C)CC[C@]2(C)S3(=O)=O)c1
OUT: 7.96

IN: Which measured pIC50 value corresponds to COCc1ccc(C(=O)Nc2ccc(F)c([C@@]3(C)N=C(N)[C@@]4(C)CC[C@@H]3S4(=O)=O)c2)nc1 ?
OUT: 7.24

IN: Record request: pIC50 value, item C[C@]1(c2cc(Nc3ncnc4cc(C(F)(F)F)cnc34)ccc2F)N=C(N)[C@@]2(C)CC[C@@H]1S2(=O)=O
OUT: 7.96

IN: For the compound C[C@]1(c2cc(Nc3ncnc4cc(C(F)(F)F)cnc34)ccc2F)N=C(N)[C@@]2(CF)CC[C@@H]1S2(=O)=O , what pIC50 is on record?
OUT: 8.00

IN: What value of pIC50 has been reported for the following compound? C#CC(C)(C)Oc1cnc(C(=O)Nc2ccc(F)c([C@@]3(C)N=C(N)[C@@]4(CF)CC[C@@H]3S4(=O)=O)c2)cn1
OUT: 7.47
